Test: Plasma clearance in Sprague-Dawley rat at 1 mg/kg, iv or 2 mg/kg, po
Format: ADME, organism-based
value type: clearance (mL/min/kg)

Please review the entries below; each comes with its answer.
What does the record list as clearance for C[C@@H]1C(=O)N2CCC[C@@H]2CCN1C(=O)C[C@H](N)Cc1cc(F)c(F)cc1F ?
152

Can you handle CCN1CCCN(C(=O)C[C@H](N)Cc2cc(F)ccc2F)[C@H](C)C1=O next?
152

Can you handle C[C@@H]1CCN(C(=O)C[C@H](N)Cc2cc(F)c(F)cc2F)[C@H](C)C(=O)N1 next?
87

Can you handle C[C@@H]1C(=O)N(CC(F)(F)F)CCCN1C(=O)C[C@H](N)Cc1cc(F)c(F)cc1F next?
82

Can you handle C[C@H]1CNC(=O)[C@@H](C)N(C(=O)C[C@H](N)Cc2cc(F)c(F)cc2F)C1 next?
92.8

Can you handle C[C@@H]1C(=O)N(C)CCCN1C(=O)C[C@H](N)Cc1cc(F)c(F)cc1F next?
113

Can you handle C[C@@H]1C(=O)N(C2CC2)CCCN1C(=O)C[C@H](N)Cc1cc(F)ccc1F next?
132

Can you handle C[C@@H]1CCN(C(=O)C[C@H](N)Cc2cc(F)c(F)cc2F)[C@H](Cc2ccccn2)C(=O)N1 next?
97

1 = C[C@@H]1C(=O)N(C2CC2)CCCN1C(=O)C[C@H](N)Cc1cc(F)c(F)cc1F
2 = N[C@@H](CC(=O)N1CCCNC(=O)C1CC(F)(F)F)Cc1cc(F)c(F)cc1F (stereo not given in full)
// pick larger clearance from pair: 1 vs 2 Lab log: write the label of the selected item as the result.
2

====

Experiment: Half life in Sprague-Dawley rat at 1 mg/kg, iv or 2 mg/kg, po
Type: ADME, organism-based
Conditions: in vivo
value type: half-life (h)

What does the record list as half-life for C[C@@H]1C(=O)N(C)CCCN1C(=O)C[C@H](N)Cc1cc(F)c(F)cc1F ?
1.3

Can you handle C[C@H]1CNC(=O)[C@@H](C)N(C(=O)C[C@H](N)Cc2cc(F)c(F)cc2F)C1 next?
1.5

Can you handle C[C@@H]1CCN(C(=O)C[C@H](N)Cc2cc(F)c(F)cc2F)[C@H](Cc2ccccn2)C(=O)N1 next?
2

1 = C[C@@H]1CCN(C(=O)C[C@H](N)Cc2cc(F)c(F)cc2F)[C@H](C)C(=O)N1
2 = CCN1CCCN(C(=O)C[C@H](N)Cc2cc(F)ccc2F)[C@H](C)C1=O
Lowest half-life? choose 1 or 2 Lab log: write the label of the selected item as the result.
2
(2: 0.8 h, 1: 1.5 h)

====

Test: Plasma clearance in monkey at 1 mg/kg, iv or 2 mg/kg, po
Assay type: ADME, organism-based, Macaca mulatta
Details: rhesus monkey
value type: clearance (mL/min/kg)

What does the record list as clearance for C[C@H]1CNC(=O)[C@@H](C)N(C(=O)C[C@H](N)Cc2cc(F)c(F)cc2F)C1 ?
39.4

Can you handle C[C@@H]1CCN(C(=O)C[C@H](N)Cc2cc(F)c(F)cc2F)[C@H](C)C(=O)N1 next?
42.3

====

Assay: Cmax in Sprague-Dawley rat at 1 mg/kg, iv or 2 mg/kg, po
Format: ADME, organism-based
Details: in vivo
value type: Cmax (nM)

A = C[C@@H]1CCN(C(=O)C[C@H](N)Cc2cc(F)c(F)cc2F)[C@H](Cc2ccccn2)C(=O)N1
B = C[C@@H]1C(=O)N(C2CC2)CCCN1C(=O)C[C@H](N)Cc1cc(F)c(F)cc1F
// pick larger Cmax from pair: A vs B Lab log: write the label of the selected item as the result.
B
(B: 570 nM, A: 10 nM)

a = C[C@@H]1C(=O)N(C2CC2)CCCN1C(=O)C[C@H](N)Cc1cc(F)ccc1F
b = CCN1CCCN(C(=O)C[C@H](N)Cc2cc(F)ccc2F)[C@H](C)C1=O
c = C[C@@H]1C(=O)N(CC(F)(F)F)CCCN1C(=O)C[C@H](N)Cc1cc(F)c(F)cc1F
hey, can you rank those molecules up there by Cmax? biggest number first please Returns: the labels listed in the requested order.
c, a, b
